Below is a list of entries, each paired with its recorded IC50 value.
# Target: human ferroportin (SLC40A1) (Homo sapiens)
# Assay procedure: FPN activity assay: internalization/degradation of ferroportin-GFP in stably transfected HEK293 cells (decrease in GFP fluorescence)
# Conditions: compound incubated at least 18 hours
Numbered stars: 1 amine (or outer) side, 2 acyl side, 3 side chain; on linkers, the order of the positions; unused ones are H or OH. Bridge positions count the residues as written; N and C are the ends. Square brackets hold non-standard residues; d marks the D form. Side chains are listed from the residue outwards. Peptide text beside a SMILES is read from it. * marks the point of attachment. Dip = N[C@H](C(=O)O)C(c1ccccc1)c1ccccc1; Hag = O=C([C@H](CCC=[*:3])N[*:1])[*:2]; Palmitoyl = CCCCCCCCCCCCCCCC(=O)*; β3hF = N[C@H](CC(=O)O)Cc1ccccc1; NMeL = CN[C@@H](CC(C)C)C(=O)O; Isovaleryl = CC(C)CC(=O)*; Ahx = NCCCCCC(=O)O

INSERT INTO measurements (molecule, target, result) VALUES
  ('CCCCCCCCCCCCCCCC(=O)NCCCCCC(=O)NCCCC[C@H](NC(=O)C[C@H](Cc1ccccc1)NC(=O)[C@@H]1CC=CCC[C@H](NC(=O)CC(C)C)C(=O)N[C@@H]([C@@H](C)O)C(=O)N[C@@H](Cc2c[nH]cn2)C(=O)N[C@@H](C(c2ccccc2)c2ccccc2)C(=O)N2CCC[C@H]2C(=O)N[C@@H](C)C(=O)N[C@@H]([C@@H](C)CC)C(=O)N1)C(=O)N[C@H](CCCCN)C(N)=O', 'human ferroportin (SLC40A1) (Homo sapiens)', '10 to 100 nM'),
  ('CCCCCCCCCCCCCCCC(=O)NCCCCCC(=O)NCCCC[C@@H]1NC(=O)[C@H](C)NC(=O)[C@@H]2CCCN2C(=O)[C@H](C(c2ccccc2)c2ccccc2)NC(=O)[C@H](Cc2c[nH]cn2)NC(=O)[C@H]([C@@H](C)O)NC(=O)[C@@H](NC(=O)CC(C)C)CCC=CCC[C@@H](C(=O)N[C@H](CC(=O)N[C@H](CCCCN)C(N)=O)Cc2ccccc2)NC1=O (single isomer, unassigned) [Compd 39]', 'human ferroportin (SLC40A1) (Homo sapiens)', '100 to 500 nM'),
  ('CCCCCCCCCCCCCCCC(=O)NCCCCCC(=O)NCCCC[C@@H]1NC(=O)[C@H](C)NC(=O)[C@@H]2CCCN2C(=O)[C@H](C(c2ccccc2)c2ccccc2)NC(=O)[C@H](Cc2c[nH]cn2)NC(=O)[C@H]([C@@H](C)O)NC(=O)[C@@H](NC(=O)CC(C)C)CCCC=CCCC[C@@H](C(=O)N[C@H](CC(=O)N[C@H](CCCCN)C(N)=O)Cc2ccccc2)NC1=O', 'human ferroportin (SLC40A1) (Homo sapiens)', '1 to 10 nM'),
  ('CCCCCCCCCCCCCCCC(=O)NCCCCCC(=O)NCCCC[C@H](NC(=O)C[C@H](Cc1ccccc1)NC(=O)[C@@H]1CCC=CCC[C@H](NC(=O)CC(C)C)C(=O)N[C@@H]([C@@H](C)O)C(=O)N[C@@H](Cc2c[nH]cn2)C(=O)N[C@@H](CC(C)(C)C)C(=O)N2CCC[C@H]2C(=O)N[C@@H](C)C(=O)N[C@@H]([C@@H](C)CC)C(=O)N1)C(=O)N[C@H](CCCCN)C(N)=O', 'human ferroportin (SLC40A1) (Homo sapiens)', '10 to 100 nM'),
  ('CCCCCCCCCCCCCCCC(=O)NCCCCCC(=O)NCCCC[C@@H]1NC(=O)[C@@H]2CCCN2C(=O)[C@H](C(c2ccccc2)c2ccccc2)NC(=O)[C@H](Cc2c[nH]cn2)NC(=O)[C@H]([C@@H](C)O)NC(=O)[C@@H](NC(=O)CC(C)C)CCCC=CCCC[C@@H](C(=O)N[C@H](CC(=O)N[C@H](CCCCN)C(N)=O)Cc2ccccc2)NC(=O)[C@H]([C@@H](C)CC)NC1=O', 'human ferroportin (SLC40A1) (Homo sapiens)', '1 to 10 nM'),
  ('CCCCCCCCCCCCCCCC(=O)NCCCCCC(=O)NCCCC[C@@H]1NC(=O)[C@H](C)NC(=O)[C@@H]2CCCN2C(=O)[C@H](C(c2ccccc2)c2ccccc2)NC(=O)[C@H](Cc2c[nH]cn2)NC(=O)[C@H]([C@@H](C)O)NC(=O)[C@@H](NC(=O)CC(C)C)CCC=CCC[C@@H](C(=O)N[C@H](CC(=O)N[C@H](CCCCN)C(N)=O)Cc2ccccc2)NC1=O (single isomer, unassigned) [Compd 37]', 'human ferroportin (SLC40A1) (Homo sapiens)', '100 to 500 nM'),
  ('CCCCCCCCCCCCCCCC(=O)NCCCCCC(=O)NCCCC[C@H](NC(=O)C[C@H](Cc1ccccc1)NC(=O)[C@@H](CCCCN)NC(=O)[C@@H](NC(=O)[C@@H]1CCCCC[C@H](NC(=O)[C@H](Cc2c[nH]cn2)NC(=O)[C@@H](NC(=O)[C@H](CCC(=O)O)NC(=O)CC(C)C)[C@@H](C)O)C(=O)N2CCC[C@H]2C(=O)N1)[C@@H](C)CC)C(=O)N[C@H](CCCCN)C(N)=O', 'human ferroportin (SLC40A1) (Homo sapiens)', '> 500 nM'),
  ('CCCCCCCCCCCCCCCC(=O)NCCCCCC(=O)NCCCC[C@H](NC(=O)C[C@H](Cc1ccccc1)NC(=O)[C@@H]1CCC=CCC[C@H](NC(=O)CC(C)C)C(=O)N[C@@H]([C@@H](C)O)C(=O)N[C@@H](Cc2c[nH]cn2)C(=O)N[C@@H](C(c2ccccc2)c2ccccc2)C(=O)N2CCC[C@H]2C(=O)N1)C(N)=O (single isomer, unassigned) [Compd 20]', 'human ferroportin (SLC40A1) (Homo sapiens)', '> 500 nM');

Alright, here's another molecule for you.
Respond only with IC50 recorded for CCCCCCCCCCCCCCCC(=O)NCCCCCC(=O)NCCCC[C@H](NC(=O)C[C@H](Cc1ccccc1)NC(=O)[C@@H]1CCC=CCC[C@H](NC(=O)CC(C)C)C(=O)N[C@@H]([C@@H](C)O)C(=O)N[C@@H](Cc2c[nH]cn2)C(=O)N[C@@H](C(c2ccccc2)c2ccccc2)C(=O)N2CCC[C@H]2C(=O)N[C@@H](C)C(=O)N(C)[C@@H](CC(C)C)C(=O)N1)C(=O)N[C@H](CCCCN)C(N)=O [Compd 53] (Isovaleryl-[Hag]TH[Dip]PA[NMeL][Hag][β3hF]K([Ahx-Palmitoyl])[dK]-NH2; staple 1-8)
100 to 500 nM

###

Below is a list of entries, each paired with its recorded IC50 value.
# Target: human ferroportin (SLC40A1) (Homo sapiens, UniProt Q9NP59)
# Sequence (Q9NP59 1-571): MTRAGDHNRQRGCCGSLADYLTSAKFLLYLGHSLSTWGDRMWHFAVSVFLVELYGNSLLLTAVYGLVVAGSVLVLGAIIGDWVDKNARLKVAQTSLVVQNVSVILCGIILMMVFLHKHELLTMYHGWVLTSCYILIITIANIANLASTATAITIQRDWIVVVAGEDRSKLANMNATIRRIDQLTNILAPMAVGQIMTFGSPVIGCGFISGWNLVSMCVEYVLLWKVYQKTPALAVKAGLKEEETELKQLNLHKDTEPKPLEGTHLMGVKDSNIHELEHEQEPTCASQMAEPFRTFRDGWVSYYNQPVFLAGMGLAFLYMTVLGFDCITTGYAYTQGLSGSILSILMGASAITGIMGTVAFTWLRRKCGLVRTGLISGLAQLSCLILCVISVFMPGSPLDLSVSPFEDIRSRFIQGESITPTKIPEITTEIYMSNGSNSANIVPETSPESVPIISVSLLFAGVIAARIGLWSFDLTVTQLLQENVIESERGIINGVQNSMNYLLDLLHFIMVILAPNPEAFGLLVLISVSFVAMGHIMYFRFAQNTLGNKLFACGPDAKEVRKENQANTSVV
# Assay procedure: FPN activity assay: internalization/degradation of ferroportin-GFP in stably transfected HEK293 cells (decrease in GFP fluorescence)
# Conditions: compound incubated at least 18 hours
# Description: Peptide analogues were tested in vitro for induction of internalization of the human ferroportin protein. Following internalization, the ferroporin protein is degraded. The assay used (FPN activity assay) measures a decrease in fluorescence of the receptor. […] The ferroportin receptor was subcloned into a mammalian GFP expression vector containing a neomycin (G418) resistance marker in such that the reading frame of the ferroportin was fused in frame with the GFP protein. […]
Numbered stars: 1 amine (or outer) side, 2 acyl side, 3 side chain; on linkers, the order of the positions; unused ones are H or OH. Bridge positions count the residues as written; N and C are the ends. Square brackets hold non-standard residues; d marks the D form. Side chains are listed from the residue outwards. Peptide text beside a SMILES is read from it. * marks the point of attachment. Dip = N[C@H](C(=O)O)C(c1ccccc1)c1ccccc1; Hag = O=C([C@H](CCC=[*:3])N[*:1])[*:2]; Palmitoyl = CCCCCCCCCCCCCCCC(=O)*; Isovaleryl = CC(C)CC(=O)*; Ahx = NCCCCCC(=O)O

INSERT INTO results (compound, result) VALUES
  ('CCCCCCCCCCCCCCCC(=O)NCCCCCC(=O)NCCCC[C@H](NC(=O)C[C@H](Cc1ccccc1)NC(=O)[C@@H](CCCCN)NC(=O)[C@@H]1CCC=CCC[C@H](NC(=O)[C@@H]2CCCN2C(=O)[C@@H](NC(=O)[C@H](Cc2c[nH]cn2)NC(=O)[C@@H](NC(=O)[C@H](CCC(=O)O)NC(=O)CC(C)C)[C@@H](C)O)C(c2ccccc2)c2ccccc2)C(=O)N1)C(=O)N[C@H](CCCCN)C(N)=O [Compd 15]', '10 to 100 nM'),
  ('CCCCCCCCCCCCCCCC(=O)NCCCCCC(=O)NCCCC[C@@H](C(=O)N[C@H](CCCCN)C(N)=O)N(C)C(=O)C[C@H](Cc1ccccc1)NC(=O)[C@@H]1CCC=CCC[C@H](NC(=O)CC(C)C)C(=O)N[C@@H]([C@@H](C)O)C(=O)N[C@@H](Cc2c[nH]cn2)C(=O)N[C@@H](C(c2ccccc2)c2ccccc2)C(=O)N2CCC[C@H]2C(=O)N[C@@H](C)C(=O)N[C@@H]([C@@H](C)CC)C(=O)N1 [Compd 55]', '1 to 10 nM');

Alright, here's another compound for you.
Respond only with IC50 recorded for CCCCCCCCCCCCCCCC(=O)NCCCCCC(=O)NCCCC[C@H](NC(=O)[C@@H]1CCC=CCC[C@H](NC(=O)CC(C)C)C(=O)N[C@@H]([C@@H](C)O)C(=O)N[C@@H](Cc2c[nH]cn2)C(=O)N[C@@H](C(c2ccccc2)c2ccccc2)C(=O)N2CCC[C@H]2C(=O)N[C@@H](C)C(=O)N[C@@H]([C@@H](C)CC)C(=O)N1)C(N)=O [Compd 18] (Isovaleryl-[Hag]TH[Dip]PAI[Hag]K([Ahx-Palmitoyl])-NH2; staple 1-8)
100 to 500 nM

Just for reference, patent US20240209053A1 is where these values come from.
